Each item that follows carries a reported growth inhibition.
test: NCI Yeast Anticancer Drug Screen. Data for the bub3 strain (AID 167); settings: S. cerevisiae bub3 mutant strain, at 50.0 µM, hits give high values
The panel holds about 79,000 compounds, 15% with a hit somewhere; the sample as a whole holds those more often.
Respond with the bare value in %.

[[record]]
compound = "O=[N+]([O-])c1ccc(NNS(=O)(=O)c2ccccc2)c([N+](=O)[O-])c1"
unit_info = "%"
recorded_value = -2

[[record]]
compound = "CC(=O)NNc1nc(C)c(C(=O)NNC(=O)C(=O)Nc2ccc(Cl)cc2Cl)s1"
unit_info = "%"
recorded_value = 45.4

[[record]]
compound = "C=C1C(=O)OC2CC(C)C3C=CC(=O)C3CC12 (configuration not stated)"
unit_info = "%"
recorded_value = 88.2

[[record]]
compound = "COc1cc2c(cc1OC)-c1nc(N)sc1CC2"
unit_info = "%"
recorded_value = 85.8


What measured growth inhibition goes with CC(=O)OC1COC(n2nnc(C#N)c2C#N)C(OC(C)=O)C1OC(C)=O (configuration not stated) ? 89.3

// query growth inhibition value for entry C/C=C/C=N/N(c1nnc(-c2ccccc2)c(-c2ccccc2)n1)S(=O)(=O)c1ccc(C)cc1 92.3

Suppose we examine the compound COC(=O)C(=O)/C=C(/O)c1ccc(OC)cc1 ; what growth inhibition value has been reported? 9.85

What does the record list as growth inhibition for C=CCNC(=O)c1ccccc1C(=O)O ? 68.2

Item under review: COc1ccc(C)c2nc3ccccc3nc12 . Reported growth inhibition? 91.9

---

assay: NCI Yeast Anticancer Drug Screen. Data for the sgs1 mgt1 strain (AID 161);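 further: 0% = growth of cultures given vehicle only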; conditions: S. cerevisiae sgs1 mgt1 strain, at 50.0 µM (retest, dose inferred, filed as 5.0), hits give high values
The panel holds about 79,000 compounds, 15% with a hit somewhere; the sample as a whole holds those more often.
Each record's class is read off its growth inhibition using these ranges: group 1 (below 20%), group 2 (20% to below 80%), group 3 (80% or more)

// return the class label for CN(C)C[N+](C)(C)Cc1ccc(C[N+](C)(C)C[N+](C)(C)Cc2ccc(CCl)cc2)cc1 group 1

Band for the recorded growth inhibition of CCCCCN(CCC)CCCCCCCCCN1CCCc2cc(OC)ccc21 ? group 1

Categorize the following entry: FC(F)(F)c1ccc(-c2ccc(OCCN3CCCC3)cc2)cc1 group 3

Dear colleague, I would appreciate it if you could identify the bin for COc1cc(/C=C/C2=C(C)C(=O)CC(c3cc(OC)c(OC)c(OC)c3)C2C)cc(OC)c1OC (centres undefined) and reply at your convenience. group 2

---

assay: NCI Yeast Anticancer Drug Screen. Data for the rad50 strain (AID 155);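 further: 0% = growth of vehicle-only cultures of the same strain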; conditions: S. cerevisiae rad50 strain growth inhibition; at 50.0 µM; hits give high values
About 79,000 compounds went through this panel and 15% of them were active in at least one assay; those are over-represented in the sample as a whole.
Would you mind labelling by growth inhibition? At or over 40% is 1.0, under is 0.0.

[[record]]
compound = "CN(C)CCNc1ccc2nnn3c4ccc(O)cc4c(=O)c1c23"
category = 0.0


Decide: growth inhibition of Oc1c(N2CCOCC2)cc(-c2cc(N3CCOCC3)c(O)c3ccccc23)c2ccccc12 >= 40%? 1.0

State whether the measured growth inhibition reaches 40%, counting equality as reaching it, for O=C(CBr)N1c2ccccc2Sc2ccc3ccccc3c21 1.0

Please tell me: is the compound N#CC1=C(N)OC(/C=C/c2ccccc2)=C(C#N)C1c1ccccc1 (stereo not given) at or over 40% in terms of growth inhibition? 1.0

Answer whether growth inhibition of CC/C(=C(/CC)c1ccc(O)cc1)c1ccc([O-])cc1.CC/C(=C(/CC)c1ccc(O)cc1)c1ccc([O-])cc1.O=C([CH-]C(=O)c1ccccc1)c1ccccc1.O=C([CH-]C(=O)c1ccccc1)c1ccccc1.[Ti+4] is greater than or equal to 40%. 1.0

Record Clc1ccccc1C(Cc1c(Cl)cccc1Cl)Cn1ccnc1 (stereo not given) ; criterion: growth inhibition no lower than 40%. Met? 1.0

Identify whether the reported growth inhibition of the following compound is 40% or greater: CC1=NOC(=O)/C1=C/C=C/c1ccccc1 1.0

Would you say Cc1ccc(S(=O)(=O)Nn2c(S)c(C#N)c(-c3ccc([N+](=O)[O-])cc3)c(C#N)c2=O)cc1 shows growth inhibition at minimum 40%? 1.0

Given the entry O=C1CCCC/C1=C\c1ccc(Br)cc1 , answer whether its growth inhibition meets or surpasses 40%. 1.0

Check the entry C[N+]1(C)CCN(CCCN2c3ccccc3Sc3ccccc32)CC1 : does growth inhibition equal or exceed 40%? 1.0

Please tell me: is the compound O=C1/C(=C/c2ccccc2[N+](=O)[O-])COc2ccccc21 at or over 40% in terms of growth inhibition? 0.0

Decide: is the reported value of growth inhibition for Cc1c(C(=O)N(CCO)CCO)[n+](=O)c2ccccc2n1[O-] equal to or greater than 40%? 0.0

Confirm if growth inhibition reported for the compound COc1ccc2c(Cc3cc(Cl)ccc3O)cncc2c1O is 40% or above. 1.0

Could you please find out whether CCCc1nc2ccccc2c(=O)n1/N=C/c1ccccc1O has growth inhibition that meets 40% or exceeds it? 1.0
